# maps each entry to its IC50
assay: Inhibition of bovine brain tubulin assembly
ASSAY_READOUT: IC50

# COMPOUND, RESULT
measured = [
    ("COc1ccc(N(C)c2nc(C)nc3c2CC(C)C3)cc1.Cl (racemic)", "1500 nM"),
    ("COc1ccc(N(C)c2nc(C)nc3c2C[C@@H](C)C3)cc1.Cl", "2100 nM"),
    ("COc1ccc(N(C)c2nc(C)nc3c2C[C@H](C)C3)cc1.Cl", "1300 nM"),
]

Data provenance is ChEMBL document CHEMBL1821698.
